- Target system: T1, human TIGIT over-expressed on cells (human, UniProt Q495A1 22-244)
- T1 construct: also called CHO-K1/human TIGIT cells; CHO cells expressing human TIGIT
- T1 sequence: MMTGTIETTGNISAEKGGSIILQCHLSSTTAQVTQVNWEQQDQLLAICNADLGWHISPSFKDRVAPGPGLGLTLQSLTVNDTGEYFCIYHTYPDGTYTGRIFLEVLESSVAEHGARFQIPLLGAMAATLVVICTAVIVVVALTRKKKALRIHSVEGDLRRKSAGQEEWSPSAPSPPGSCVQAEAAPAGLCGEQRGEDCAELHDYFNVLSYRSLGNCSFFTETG
- Test summary: FACS, CHO-K1 cells over-expressing human TIGIT

Binder	Top (best-fit)
139E2C2D2 (antibody, V domains shown, Mouse monoclonal antibody; also called mouse anti-human TIGIT monoclonal antibody 139E2C2D2) VH: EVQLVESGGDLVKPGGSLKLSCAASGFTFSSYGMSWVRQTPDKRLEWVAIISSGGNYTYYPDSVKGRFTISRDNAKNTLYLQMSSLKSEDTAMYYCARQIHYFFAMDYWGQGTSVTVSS VL: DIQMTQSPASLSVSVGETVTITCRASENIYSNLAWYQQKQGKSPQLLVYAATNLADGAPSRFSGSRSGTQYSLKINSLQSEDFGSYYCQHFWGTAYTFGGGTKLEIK	89.9
104G12E12G2 (antibody, V domains shown, Mouse monoclonal antibody; also called mouse anti-human TIGIT monoclonal antibody 104G12E12G2) VH: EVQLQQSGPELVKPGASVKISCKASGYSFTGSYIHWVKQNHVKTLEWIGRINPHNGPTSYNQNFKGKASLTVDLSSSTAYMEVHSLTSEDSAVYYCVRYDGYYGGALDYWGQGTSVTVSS VL: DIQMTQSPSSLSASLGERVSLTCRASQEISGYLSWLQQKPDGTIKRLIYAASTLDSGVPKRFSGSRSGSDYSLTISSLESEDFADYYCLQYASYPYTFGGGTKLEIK	96.9
8F2D8E7 (antibody, V domains shown, Mouse monoclonal antibody; also called mouse anti-human TIGIT monoclonal antibody 8F2D8E7) VH: QVQLQQSGAELVKPGASVKLSCKTSGYTFTSYWIQWIKQRPGQGLGWIGEIFPGTGTTYYNEKFKGKATLTIDTSSSTAYMQLSSLTSEDSAVYSCARSRDGKVVDYWGQGTSVTVSS VL: DVQMTQTTSSLSASLGDRVTISCRASQDISNFLNWYQQRPDGTVKLLIYYTSKLHSGVPSRFSGSGSGTDYSLTIRNLEKEDIATYFCQQGNTPPYTFGGGTKLEIK	276
70A11A8E6 (antibody, V domains shown, Mouse monoclonal antibody; also called mouse anti-human TIGIT monoclonal antibody 70A11A8E6) VH: DVQLQESGPGLVKPSQSLSLTCTVTGYSITSDYAWNWIRQFPGNKLEWMGYIIYSGSTSYNPSLKSRISITRDTSKNQFFLQLNSVTTEDTATYYCARGWFRRPDYWGQGTTLTVSS VL: DIVMTQSHEFMSTSLGDRVSITCKASQDVSTAVAWHQQKPGQSPKQLIYSASYRYTGVPDRFTGSGSGTDFTFTISNMQAEDLAVYYCQQHYSVPLTFGAGTKLELK	263
64G1E9B4 (antibody, V domains shown, Mouse monoclonal antibody; also called mouse anti-human TIGIT monoclonal antibody 64G1E9B4) VH: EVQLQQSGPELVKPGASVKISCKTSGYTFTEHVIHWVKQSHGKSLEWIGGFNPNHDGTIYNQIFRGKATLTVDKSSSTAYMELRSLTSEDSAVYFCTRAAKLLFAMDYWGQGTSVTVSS VL: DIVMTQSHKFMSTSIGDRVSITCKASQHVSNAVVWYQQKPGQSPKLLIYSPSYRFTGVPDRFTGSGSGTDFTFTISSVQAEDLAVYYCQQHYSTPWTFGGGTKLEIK	113

Source listed as patent US20210095028A1.
